target: T1, HER2 on the surface of HER2+ cancer cells (BT474, SKOV-3) (human, UniProt P04626 23-1255); experiment: flow cytometry on SKOV-3 cells (HER2+), 100 nM binding sites
T1 construct: whole, on cells; also called human epidermal growth factor receptor 2
testReadout: FITC+ (%)
One number for each entry, in %.

// solved cases for FITC+ (%) follow
| binder | testReadout | endpointValue |
| --- | --- | --- |
| H7 anti-HER2 VHH (VHH) VHH: QVQLQESGGGLVQAGGSLRLSCAASGHTLSTYVVAWFRQAPGKERESVAAIGWSTRSPYYADSVKGRFTISEDNTKNTVYLQMNSLKPDDTAVYYCAADSYPRRWDRESDFGSWGQGTQVTVSS | FITC+ (%) | 94.8 |
| E5 anti-HER2 VHH (VHH, also called E5 clone) VHH: QVQLQESGGGLVQAGGSLRLDCAASGRTLSSYVVGWFRQAPGKEREVVAAIGWSRTSTFYTDSVKGRFTISRDNTENTVYLQMNSLKPGDTAVYYCAADSSPRRWDRESDFGSWGQGTQVTVSS | FITC+ (%) | 93.3 |

Indicate its recorded FITC+ (%); the binder in question is E9 anti-HER2 VHH (VHH) VHH: QVQLQESGGGSVQAGGSLKLSCAASGRTLSAYVVGWFRQAPGRERESVAAIGWSTHSVYYADSVKGRFTISRDNTENTVYLQMNSLKPDDTAVYYCAADSSPRRWDRESDFGSWGQGTQVTVSS
93.1

Cited source for all entries: patent US20250340649A1
